# System: Mus musculus
# experiment.notes: Inhibition of cholesterol-absorption in mouse at 10 mg/kg, po
# Format: functional
Please provide measured inhibition in vivo at 10 mg/kg for the entries that follow.
Answers are plain numbers, in %.

Consider the reported inhibition in vivo at 10 mg/kg for these compounds:
structure.as.smiles	meas.value
O=C(CN1CN(c2ccccc2)C2(CCN(C(=O)c3ccc(C4CCCCC4)cc3)CC2)C1=O)NCCCO	42
COC(=O)CCCNC(=O)CN1CN(c2ccccc2)C2(CCN(C(=O)c3ccc(C(C)(C)C)cc3)CC2)C1=O	35
COC(=O)CCNC(=O)CN1CN(c2ccccc2)C2(CCN(C(=O)c3ccc(C(C)(C)C)cc3)CC2)C1=O	44
O=C(CN1CN(c2ccccc2)C2(CCN(C(=O)c3ccc(C4CCCCC4)cc3)CC2)C1=O)NCCCCO	52
CC(C)(C)OC(=O)NCCCCNC(=O)CN1CN(c2ccccc2)C2(CCN(C(=O)c3ccc(C(C)(C)C)cc3)CC2)C1=O	7

Consider the additional compound presented here.
**Q:** Reported inhibition in vivo at 10 mg/kg for CS(=O)(=O)NCCCNC(=O)CN1CN(c2ccccc2)C2(CCN(C(=O)c3ccc(C4CCCCC4)cc3)CC2)C1=O : what is it?
**A:** 42
